Numbers sourced from patent US20240325555A1.

Target: T1, human LIV-1 (human, UniProt Q13433 29-755)
T1 construct: whole, on cells; also called H-LIV1
T1 sequence (looked up): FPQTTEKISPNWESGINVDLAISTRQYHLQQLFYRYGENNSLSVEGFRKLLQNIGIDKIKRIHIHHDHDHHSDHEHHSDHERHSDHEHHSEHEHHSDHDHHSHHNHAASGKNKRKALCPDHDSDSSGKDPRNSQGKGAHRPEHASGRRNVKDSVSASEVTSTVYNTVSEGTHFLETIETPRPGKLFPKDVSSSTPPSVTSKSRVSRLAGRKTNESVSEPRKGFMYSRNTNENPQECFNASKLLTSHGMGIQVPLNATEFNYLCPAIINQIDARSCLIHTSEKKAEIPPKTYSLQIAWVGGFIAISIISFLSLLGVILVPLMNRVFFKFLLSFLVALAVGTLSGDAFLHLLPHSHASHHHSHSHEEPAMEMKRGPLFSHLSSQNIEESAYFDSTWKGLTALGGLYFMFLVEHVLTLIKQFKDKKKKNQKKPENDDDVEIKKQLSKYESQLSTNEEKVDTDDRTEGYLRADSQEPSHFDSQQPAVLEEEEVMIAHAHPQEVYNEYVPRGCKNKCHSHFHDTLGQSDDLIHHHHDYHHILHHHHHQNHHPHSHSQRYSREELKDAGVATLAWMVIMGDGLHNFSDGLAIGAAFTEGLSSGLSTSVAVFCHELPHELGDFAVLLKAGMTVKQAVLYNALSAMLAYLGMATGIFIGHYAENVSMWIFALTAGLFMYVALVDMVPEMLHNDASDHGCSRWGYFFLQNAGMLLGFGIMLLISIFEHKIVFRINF
Test: FACS, HEK293/H_LIV-1 cells
resultType: Top (MFI)
# output: bare number, implied unit MFI

Examples with answers:
binder="127A2B9 (antibody, V domains shown, Tested as chimeric antibody) VH: EVQLQESGPSLVKPSQTLSLTCSVTGDSITSGYWNWIRKLPGNKLEYMGYISYSGSTYYNPSLKSRISITRDTSKNQYYLQLNSVTTEDTATYYCARIYYDYDGYFDVWGAGTTVTVSS VL: DIVMTQAAPSVPVTPGESVSISCRSSKSLLHSNGNTFLYWFLQRPGQSPQLLIYRMSNLASGVPDRFSGSGSGTAFTLRISRVEAEDVGVYYCMQHLEYPYTFGGGTKLEIK" recordedresult=34600
binder="135C6E7 (antibody, V domains shown, Tested as chimeric antibody) VH: EVQLVESGGGLVQPKGSLKLSCAASGFTFNTYAMNWVRQAPGKGLEWVARIRSKYNSYATYYADSVKDRFTISRDDSQSILYLQMNNLKTEDTAMYYCVRHEDYDGGFAYWGQGTLVTVSA VL: DIVMSQSPSSLAVSVGEKVTMSCKSSQSLFKSRTRKNYLAWYQQKPGQSPKLLIYWASTRESGVPDRFTGSGSGTDFTLTISSVQAEDLAVYYCKESYNLMYTFGGGTKLEIK" recordedresult=16500

Now for another entry.
For 39D10B2 (antibody, V domains shown, Tested as chimeric antibody) VH: QVQLKQSGPGLVQPSQSLSITCTVSGFSLTTYGVHWVRQSPGKGLEWLGVIWTGGTTDYNAAFISRLSISKDNSKSQVFFKMNSLQANDTAMYYCARGPSSYWGQGTLVTVSA VL: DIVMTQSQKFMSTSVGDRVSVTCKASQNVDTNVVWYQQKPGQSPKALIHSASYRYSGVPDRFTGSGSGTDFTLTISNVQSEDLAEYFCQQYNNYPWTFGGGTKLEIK the binder record lists Top (MFI) as 61800
